Molecular target: UniProtKB Q07869
Sequence (Q07869 1-468): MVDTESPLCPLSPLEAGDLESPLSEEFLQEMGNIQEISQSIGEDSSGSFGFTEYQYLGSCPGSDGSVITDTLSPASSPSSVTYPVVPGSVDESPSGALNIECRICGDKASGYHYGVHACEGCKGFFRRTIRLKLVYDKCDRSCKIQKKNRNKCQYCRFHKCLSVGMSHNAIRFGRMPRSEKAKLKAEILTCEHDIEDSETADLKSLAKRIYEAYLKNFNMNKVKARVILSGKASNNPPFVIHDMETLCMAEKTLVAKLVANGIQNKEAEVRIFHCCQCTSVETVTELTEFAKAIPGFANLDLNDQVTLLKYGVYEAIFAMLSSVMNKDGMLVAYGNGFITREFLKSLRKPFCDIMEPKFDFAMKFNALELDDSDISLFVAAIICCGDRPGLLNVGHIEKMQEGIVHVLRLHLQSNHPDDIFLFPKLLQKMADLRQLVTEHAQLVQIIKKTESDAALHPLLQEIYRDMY
Assay: Hela cell/luciferase reporter gene method, PPARα agonist activity
Conditions: Hela cells, pPPRE3-TK-Luciferase reporter, 24 hrs incubation; read-out: agonistic activity on PPAα (EC50)
pEC50: −log10 of the molar value.
QUANTITY_NAME: pEC50

{"COMPOUND": "CCSc1ccc2c(C)c(C(=O)/C=C/c3cc(C)c(OC(C)(C)C(=O)O)c(C)c3)oc2c1 [Compound 74]", "QUANTITY_NAME": "pEC50", "REPORTED_MEASUREMENT": 7.86}
{"COMPOUND": "COc1cc(/C=C/C(=O)c2cc3ccc(SC)cc3o2)cc(OC)c1OC(C)(C)C(=O)O [Compound 99]", "QUANTITY_NAME": "pEC50", "REPORTED_MEASUREMENT": 7.28}
{"COMPOUND": "CSc1ccc2cc(C(=O)/C=C/c3cc(C)c(OC(C)(C)C(=O)O)c(C)c3)[nH]c2c1 [Compound 88]", "QUANTITY_NAME": "pEC50", "REPORTED_MEASUREMENT": 5.61}
{"COMPOUND": "CSc1ccc2cc(C(=O)/C=C/c3ccc(OC(C)(C)C(=O)O)cc3)oc2c1 [Compound 56]", "QUANTITY_NAME": "pEC50", "REPORTED_MEASUREMENT": 7.08}

(P) CSc1ccc(C(=O)/C=C/c2ccc(OC(C)(C)C(=O)O)cc2)c2occc12 [Compound 12]
(Q) Cc1cc(/C=C/C(=O)c2cccc3ccoc23)cc(C)c1OC(C)(C)C(=O)O [Compound 3]
(R) CSc1ccc(C(=O)/C=C/c2cc(C)c(OC(C)(C)C(=O)O)c(C)c2)c2ccoc12 [Compound 27]
(S) CSc1ccc2c(C)c(C(=O)/C=C/c3cc(Cl)c(OC(C)(C)C(=O)O)c(Cl)c3)oc2c1 [Compound 103]
[Q] Ascending by pEC50, please: list the compounds accordingly. Note for the reader: the ranking is given by listing the labels in the order requested.
[A] Q, P, R, S
(Q: 6.34, P: 7.00, R: 7.23, S: 8.06)

###

Target: PPARα (Homo sapiens, UniProt Q07869)
Test: Hela cell/luciferase reporter gene method, PPARα agonist activity
Conditions: Hela cells, pPPRE3-TK-Luciferase reporter, 24 hrs incubation; read-out: agonistic activity on PPAα (EC50)
QUANTITY_NAME: EC50 (nM)

Examples with their reported EC50 follow.
{"COMPOUND": "CSc1cccc2cc(C(=O)/C=C/c3cc(C)c(OC(C)(C)C(=O)O)c(C)c3)oc12", "EC50 [nM]": 352}
{"COMPOUND": "CSc1ccc(C(=O)/C=C/c2cc(C)c(OC(C)(C)C(=O)O)c(C)c2)cc1 [Elafibranor, reference compound]", "EC50 [nM]": 29.2}
{"COMPOUND": "Cc1cc(/C=C/C(=O)c2cc3ccccc3o2)cc(C)c1OC(C)(C)C(=O)O", "EC50 [nM]": 874}

(I) Cc1cc(/C=C/C(=O)c2ccc3c(c2)CCS3)cc(C)c1OC(C)(C)C(=O)O
(II) CSc1ccc(C(=O)/C=C/c2cc(C)c(OC(C)(C)C(=O)O)c(C)c2)c2oc(C)cc12
(III) CSc1ccc2cc(C(=O)/C=C/c3cc(C)c(OC(C)(C)C(=O)O)c(C)c3)sc2c1
(IV) CCSc1ccc2c(C)c(C(=O)/C=C/c3cc(C)c(OC(C)(C)C(=O)O)c(C)c3)sc2c1
[Q] Ascending by EC50, please: list the compounds accordingly. Note for the reader: the ranking is given by listing the labels in the order requested.
[A] III, IV, I, II

(a) CSc1ccc2c(C)c(C(=O)/C=C/c3cc(C)c(OC(C)(C)C(=O)O)c(C)c3)sc2c1
(b) CSc1ccc2c(C(F)(F)F)c(C(=O)/C=C/c3cc(C)c(OC(C)(C)C(=O)O)c(C)c3)oc2c1
[Q] Field: entry with larger EC50 (options a / b ). Your answer should be the label attached to the chosen record.
[A] a

(P) CCc1c(C(=O)/C=C/c2cc(C)c(OC(C)(C)C(=O)O)c(C)c2)oc2cc(SC)ccc12
(Q) Cc1ccc2cc(C(=O)/C=C/c3cc(C)c(OC(C)(C)C(=O)O)c(C)c3)oc2c1
(R) CSc1ccc2cc(C(=O)/C=C/c3cc(C)c(OCC(=O)O)c(C)c3)oc2c1
[Q] Task field, ranking: reported EC50, descending order. Note for the reader: the ranking is given by listing the labels in the order requested.
[A] R, Q, P
(R: 1180 nM, Q: 123 nM, P: 19.2 nM)

###

Assay: Pharmacokinetic (PK) experiments after intragastric administration in rats
Assay type: in vivo, SD rats
Conditions: male, SD, rat, plasma, po, intragastric administration 20 mg/kg
QUANTITY_NAME: AUC(0-inf) (ng·h/mL)

Examples with their reported AUC(0-inf) follow.
{"SMILES_INPUT": "CSc1ccc2cc(C(=O)/C=C/c3cc(C)c(OC(C)(C)C(=O)O)c(C)c3)sc2c1", "REPORTED_MEASUREMENT": 811}
{"SMILES_INPUT": "Cc1cc(/C=C/C(=O)c2ccc3c(c2)CCS3)cc(C)c1OC(C)(C)C(=O)O", "REPORTED_MEASUREMENT": 3380}

(P) CSc1ccc2cc(C(=O)/C=C/c3cc(Cl)c(OC(C)(C)C(=O)O)c(Cl)c3)oc2c1
(Q) CSc1ccc2cc(C(=O)/C=C/c3cc(C)c(OC(C)(C)C(=O)O)c(C)c3)oc2c1
[Q] Problem: Given the entries P and Q , determine which has the lower reported AUC(0-inf). Your answer should be the label attached to the chosen record.
[A] Q

###

Target: PPARγ (Homo sapiens)
Sequence (P37231 whole entry, species assumed): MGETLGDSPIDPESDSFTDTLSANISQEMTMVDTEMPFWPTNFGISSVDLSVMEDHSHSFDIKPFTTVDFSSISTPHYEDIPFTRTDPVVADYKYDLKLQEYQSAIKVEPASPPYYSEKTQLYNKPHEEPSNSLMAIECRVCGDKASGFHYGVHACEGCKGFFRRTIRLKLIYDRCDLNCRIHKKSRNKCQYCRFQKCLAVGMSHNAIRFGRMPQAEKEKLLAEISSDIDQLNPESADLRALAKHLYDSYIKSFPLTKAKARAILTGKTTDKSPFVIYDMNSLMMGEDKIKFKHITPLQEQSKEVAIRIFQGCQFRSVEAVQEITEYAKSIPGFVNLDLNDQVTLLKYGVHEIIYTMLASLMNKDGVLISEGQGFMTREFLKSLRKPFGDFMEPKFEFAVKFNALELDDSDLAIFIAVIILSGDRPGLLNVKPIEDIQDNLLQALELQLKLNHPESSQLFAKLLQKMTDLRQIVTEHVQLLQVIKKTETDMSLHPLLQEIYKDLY
Assay: Hela cell/luciferase reporter gene method, PPARγ agonist activity
Details: Hela cells, pPPRE3-TK-Luciferase reporter, 24 hrs incubation; read-out: agonistic activity on PPARγ (EC50)
QUANTITY_NAME: EC50 (µM)

{"SMILES_INPUT": "COc1ccc2cc(C(=O)/C=C/c3cc(C)c(OC(C)(C)C(=O)O)c(C)c3)oc2c1", "READING_UNIT": "µM", "EC50": 0.116}
{"SMILES_INPUT": "CCSc1ccc(C(=O)/C=C/c2cc(C)c(OC(C)(C)C(=O)O)c(C)c2)c2occc12", "READING_UNIT": "µM", "EC50": 0.0626}

(a) CSc1ccc2cc(C(=O)/C=C/c3cc(C)c(OC(C)(C)C(=O)O)c(C)c3)sc2c1
(b) CSc1ccc2cc(C(=O)/C=C/c3cc(Cl)c(OC(C)(C)C(=O)O)c(Cl)c3)oc2c1
(c) CSc1ccc(C(=O)/C=C/c2cc(C)c(OCC(=O)O)c(C)c2)c2occc12
[Q] Ascending by EC50, please: list the compounds accordingly. Note for the reader: the ranking is given by listing the labels in the order requested.
[A] a, b, c
(a: 0.0941 µM, b: 0.475 µM, c: 3.41 µM)

###

Experiment: Pharmacokinetic (PK) experiments after intragastric administration in rats
Format: in vivo, SD rats
Details: male, SD, rat, plasma, po, intragastric administration 20 mg/kg
QUANTITY_NAME: AUC(0-t) (ng·h/mL)

Examples with their reported AUC(0-t) follow.
{"MOLECULE": "CCc1c(C(=O)/C=C/c2cc(C)c(OC(C)(C)C(=O)O)c(C)c2)oc2cc(SC)ccc12", "READING_UNIT": "ng·h/mL", "AUC(0-t)": 1700}
{"MOLECULE": "COc1ccc2cc(C(=O)/C=C/c3cc(C)c(OC(C)(C)C(=O)O)c(C)c3)oc2c1", "READING_UNIT": "ng·h/mL", "AUC(0-t)": 1550}

(a) CSc1ccc2c(C)c(C(=O)/C=C/c3cc(Cl)c(OC(C)(C)C(=O)O)c(Cl)c3)oc2c1
(b) CSc1ccc(C(=O)/C=C/c2cc(C)c(OC(C)(C)C(=O)O)c(C)c2)cc1 [Elafibranor, reference compound]
(c) CSc1ccc(C(=O)/C=C/c2cc(C)c(OC(C)(C)C(=O)O)c(C)c2)c2occc12
(d) CSc1ccc2cc(C(=O)/C=C/c3cc(Cl)c(OC(C)(C)C(=O)O)c(Cl)c3)oc2c1
[Q] Task field, ranking: reported AUC(0-t), descending order. Note for the reader: the ranking is given by listing the labels in the order requested.
[A] a, d, c, b
